# Test system: Plasmopara viticola
# assay-details: Test D: grape downy mildew control on grape seedlings
# Assay type: in vivo
# experimental-setup: 250 ppm, 100 = 100% disease control, 0 = no control
Recorded Test D disease control rating, one value per entry.
# number only, unit % dropped from output

Sample records with Test D disease control rating:
> print(dat)
                                   compound                 endpoint.label  unit  numeric.value
1  COc1ccnc(C(=O)NC(C)C(=O)OC(C)C2CCC(C)(C)CC2)c1O (mixture of isomers)  Test D disease control rating     %              8
2  CCCCCCc1ccc(C(C)OC(=O)C(C)NC(=O)c2nccc(OC)c2O)cc1 (mixture of isomers)  Test D disease control rating     %             46

Query: Please indicate recorded Test D disease control rating of COc1cccc(C(=O)NC(C)C(=O)OC(C)c2ccccc2Cc2ccccc2)c1O (stereo not shown) [Compound 5] measured with Plasmopara viticola.
Response: 73

Query: Please indicate recorded Test D disease control rating of COc1ccnc(C(=O)N[C@@H](C)C(=O)OC(C)c2ccc(-n3ccc(C(F)(F)F)n3)cc2Cc2ccccc2)c1OC(C)=O (stereo partly shown) measured with Plasmopara viticola.
Response: 10

Query: Please indicate recorded Test D disease control rating of CCC(OC(=O)[C@H](C)NC(=O)c1nccc(OC)c1OCOC(=O)C(C)C)c1ccc(C2CCCCC2)cc1 (single isomer, unassigned) [Compound 133] measured with Plasmopara viticola.
Response: 24

Query: Please indicate recorded Test D disease control rating of COc1ccnc(C(=O)NC(C)C(=O)OC(C)C2Cc3ccccc3O2)c1OC(C)=O (mixture of isomers) measured with Plasmopara viticola.
Response: 14

Query: Please indicate recorded Test D disease control rating of COc1ccnc(C(=O)NC(C(=O)OC(C)c2ccc(C3CCCCC3)cc2)C(C)C)c1O (mixture of isomers) measured with Plasmopara viticola.
Response: 63

Query: Please indicate recorded Test D disease control rating of COc1ccnc(C(=O)N[C@@H](C)C(=O)OC(C)c2ccc(CC3CCCCC3)cc2)c1OC(C)=O (single isomer, unassigned) [Compound 129] measured with Plasmopara viticola.
Response: 32

Query: Please indicate recorded Test D disease control rating of CCC(OC(=O)C(C)NC(=O)c1nccc(OC)c1O)c1ccc(C2CCCCC2)cc1 (mixture of isomers) measured with Plasmopara viticola.
Response: 62

Query: Please indicate recorded Test D disease control rating of COc1ccnc(C(=O)N[C@@H](C)C(=O)OC(C)c2ccc(F)cc2Cc2ccccc2)c1OC(C)=O (single isomer, unassigned) [Compound 38] measured with Plasmopara viticola.
Response: 44

Query: Please indicate recorded Test D disease control rating of COc1ccnc(C(=O)N[C@@H](C)C(=O)OC(C)c2ccc(C3CCCCC3)cc2)c1OC(C)=O (single isomer, unassigned) measured with Plasmopara viticola.
Response: 24

Query: Please indicate recorded Test D disease control rating of COc1ccnc(C(=O)N[C@@H](C)C(=O)OC(C)c2ccc(C(C)(C)C)cc2)c1O (stereo partly shown) measured with Plasmopara viticola.
Response: 57

Query: Please indicate recorded Test D disease control rating of COc1ccnc(C(=O)N[C@@H](C)C(=O)OC(C)c2cccc(-c3ccccc3)c2)c1O (single isomer, unassigned) [Compound 3] measured with Plasmopara viticola.
Response: 32

Query: Please indicate recorded Test D disease control rating of COc1ccnc(C(=O)NC(C)C(=O)OC(C)c2ccccc2-n2ccc(C(F)(F)F)n2)c1O (mixture of isomers) measured with Plasmopara viticola.
Response: 43

Query: Please indicate recorded Test D disease control rating of COc1ccnc(C(=O)NC(C)C(=O)OC(C)c2cccc(C3CC3)c2)c1OC(C)=O (mixture of isomers) measured with Plasmopara viticola.
Response: 63

Query: Please indicate recorded Test D disease control rating of COc1ccnc(C(=O)NC(C)C(=O)OC(C)c2ccc(C#N)cc2)c1OC(C)=O (mixture of isomers) measured with Plasmopara viticola.
Response: 66

---

# Test system: Zymoseptoria tritici
# assay-details: Test C: wheat leaf blotch control on wheat seedlings
# Format: in vivo
# experimental-setup: 250 ppm; wheat seedlings; 100 = 100% disease control, 0 = no control
endpoint-label: Test C disease control rating (%)
# number only, unit % dropped from output

Sample records with Test C disease control rating:
> print(dat)
                                   compound  unit  numeric.value
1  COc1ccnc(C(=O)NC(C)C(=O)OC(C)c2ccc(F)cc2Oc2ccccc2)c1OC(C)=O (mixture of isomers)     %             67
2  COc1ccnc(C(=O)N[C@@H](C)C(=O)OC(C)c2ccccc2Oc2ccccc2)c1OC(C)=O (single isomer, unassigned) [Compound 108]     %             75
3  COc1ccnc(C(=O)NC(C)C(=O)OC(C)c2ccc3ccccc3c2)c1OC(C)=O (mixture of isomers)     %            100
4  COc1ccnc(C(=O)NC(C)C(=O)OC(C)c2cccc(C3CC3)c2)c1OC(C)=O (mixture of isomers)     %             86

Query: State its Test C disease control rating: COc1ccnc(C(=O)N[C@@H](C)C(=O)OC(C)c2ccc(C(C)(C)C)cc2)c1OC(C)=O (some centres unmarked)
Response: 99

---

Recorded Test C disease control rating, one value per entry.
# Tested on: Zymoseptoria tritici
# assay-details: Test C: wheat leaf blotch control on wheat seedlings
# Format: in vivo
# experimental-setup: 250 ppm; wheat seedlings; 100 = 100% disease control, 0 = no control

> print(dat)
                                   compound  result
1  COc1ccnc(C(=O)NC(C)C(=O)OC(C)C2CC(C)(C)CC(C)(C)C2)c1OC(C)=O (mixture of isomers) [Compound 171]     80%

Query: State its Test C disease control rating: COc1ccnc(C(=O)NC(C)C(=O)OC(C)c2ccc(-n3ccc(C(F)(F)F)n3)cc2-n2ccc(C(F)(F)F)n2)c1O (mixture of isomers) [Compound 89]
Response: 0%

Query: State its Test C disease control rating: COc1ccnc(C(=O)N[C@@H](C)C(=O)OC(C)c2ccc(CC3CCCCC3)cc2)c1OC(C)=O (single isomer, unassigned) [Compound 128]
Response: 83%

Query: State its Test C disease control rating: CCC(OC(=O)[C@H](C)NC(=O)c1nccc(OC)c1OC(C)=O)C1CCCCC1 (single isomer, unassigned) [Compound 168]
Response: 99%

Query: State its Test C disease control rating: C#Cc1ccc(C(C)OC(=O)C(C)NC(=O)c2nccc(OC)c2O)cc1 (mixture of isomers) [Compound 78]
Response: 82%

Query: State its Test C disease control rating: COc1ccnc(C(=O)NC(C)C(=O)OC(C)c2ccc(C#N)cc2)c1OC(C)=O (mixture of isomers) [Compound 33]
Response: 87%

---

# Tested on: Zymoseptoria tritici
# assay-details: Test C: wheat leaf blotch control on wheat seedlings
# Format: in vivo
# experimental-setup: 250 ppm; wheat seedlings; 100 = 100% disease control, 0 = no control
endpoint-label: Test C disease control rating

Sample records with Test C disease control rating:
> print(dat)
                                   compound  result
1  COc1ccnc(C(=O)NC(C)C(=O)OC(C)c2ccccc2[N+](=O)[O-])c1O (mixture of isomers) [Compound 16]     76%
2  COc1ccnc(C(=O)N[C@@H](C)C(=O)OC(C)c2ccc(C(C)(C)C)cc2)c1O (stereo partly shown) [Compound 123]     84%
3  COc1ccnc(C(=O)N[C@@H](C)C(=O)OC(C)c2ccccc2Cc2ccccc2)c1OC(C)=O (single isomer, unassigned) [Compound 112]     83%

// switching to the query compound
Query: State its Test C disease control rating: CCOC(=O)c1cnn(-c2ccc(C(C)OC(=O)C(C)NC(=O)c3nccc(OC)c3OC(C)=O)cc2)c1 (mixture of isomers) [Compound 47]
Response: 51%

---

# System: Zymoseptoria tritici
# assay-details: Test C: wheat leaf blotch control on wheat seedlings
# Assay type: in vivo
# experimental-setup: 250 ppm; wheat seedlings; 100 = 100% disease control, 0 = no control
endpoint-label: Test C disease control rating (%)
# number only, unit % dropped from output

Query: State its Test C disease control rating: COc1ccnc(C(=O)N[C@@H](C)C(=O)OC(c2ccc(C3CCCCC3)cc2)C(F)(F)F)c1OC(C)=O (stereo partly drawn) [Compound 119]
Response: 88

Query: State its Test C disease control rating: COc1ccnc(C(=O)N[C@@H](C)C(=O)OC(C)c2ccccc2Cc2ccccc2)c1OC(C)=O (single isomer, unassigned) [Compound 110]
Response: 92

Query: State its Test C disease control rating: CCC(OC(=O)[C@H](C)NC(=O)c1nccc(OC)c1O)C1CCCCC1 (single isomer, unassigned) [Compound 167]
Response: 90

---

# System: Plasmopara viticola
# assay-details: Test D: grape downy mildew control on grape seedlings
# Format: in vivo
# experimental-setup: 250 ppm, 100 = 100% disease control, 0 = no control
endpoint-label: Test D disease control rating (%)
# number only, unit % dropped from output

Sample records with Test D disease control rating:
> print(dat)
                                   compound  unit  numeric.value
1  COc1ccnc(C(=O)NC(C)C(=O)OC(C)c2ccccc2[N+](=O)[O-])c1O (mixture of isomers)     %             59
2  COc1cccc(C(=O)NC(C)C(=O)OC(C)C2CCCCC2)c1OC(C)=O (mixture of isomers)     %             60

Query: State its Test D disease control rating: COc1ccnc(C(=O)N[C@@H](C)C(=O)OC(C)c2ccc(F)cc2Cc2ccccc2)c1O (single isomer, unassigned) [Compound 24]
Response: 61
